Multiple publications report IC50 for cGMP-inhibited 3',5'-cyclic phosphodiesterase 3A (Homo sapiens, UniProt Q14432); what follows is a combined list.
One number for each entry, in µM.

Examples with answers:
>>> reported_value("COc1ccc(C2=NN(CCCCOc3ccc(-c4ccc(=O)[nH]n4)cc3)C(=O)CC2C)c2cc(C(F)(F)F)nn12 (stereo not given)")
38
>>> reported_value("O=c1ccnc(SCCCCOc2ccc(-c3nnn[nH]3)cc2)[nH]1")
0.00513
>>> reported_value("N#Cc1ccc(N2CCN(Cc3cn4cc(Cl)ccc4n3)CC2)nc1")
15
>>> reported_value("COc1cc2ccnc(Cc3ccc(OCCOCCF)c(OC)c3)c2cc1OC")
2.2

Below are some compounds; for each one, tell me its IC50.
1. Cn1nc(-c2ccc(Cl)cc2)s/c1=N\c1cccc(C(=O)O)c1
2. CCOC(=O)Nc1ccc(C2=NNC(=O)C[C@H]2C)cc1
3. COc1ccc(C2=NNC(=O)CC2C)c2cc(C(F)(F)F)oc12 (racemic)
4. CC1CC(=O)NN=C1c1ccc(NC2=C(Cc3cccc([N+](=O)[O-])c3)C(=O)CCC2)cc1 (stereo not given)
5. COc1ccc(C2=NN(CCCCOc3ccc(C4=NNC(=O)C4(C)C)c(F)c3F)C(=O)CC2C)c2cc(C(F)(F)F)nn12 (stereo not given)

1: 7.47; 2: 0.024; 3: 19.8; 4: 0.0031; 5: 0.015

Below are some compounds; for each one, tell me its IC50.
1. Cc1cc(=O)[nH]c2ccc(OCc3cccc(C(=O)N4CCOCC4)c3)cc12
2. CC1CC(=O)NN=C1c1ccc(NC2=C(Cc3cccc(F)c3)C(=O)CCC2)cc1 (stereo not given)

1: 1.34; 2: 0.0028
